Values were extracted from ChEMBL document CHEMBL3112396.

molecular target: Acetylcholinesterase (Mus musculus); assay: Inhibition of ICR mouse brain AChE using acetylthiocholine iodide as substrate incubated 10 mins prior to substrate addition measured after 10 mins by Ellman's method
Sequence (P21836 whole entry): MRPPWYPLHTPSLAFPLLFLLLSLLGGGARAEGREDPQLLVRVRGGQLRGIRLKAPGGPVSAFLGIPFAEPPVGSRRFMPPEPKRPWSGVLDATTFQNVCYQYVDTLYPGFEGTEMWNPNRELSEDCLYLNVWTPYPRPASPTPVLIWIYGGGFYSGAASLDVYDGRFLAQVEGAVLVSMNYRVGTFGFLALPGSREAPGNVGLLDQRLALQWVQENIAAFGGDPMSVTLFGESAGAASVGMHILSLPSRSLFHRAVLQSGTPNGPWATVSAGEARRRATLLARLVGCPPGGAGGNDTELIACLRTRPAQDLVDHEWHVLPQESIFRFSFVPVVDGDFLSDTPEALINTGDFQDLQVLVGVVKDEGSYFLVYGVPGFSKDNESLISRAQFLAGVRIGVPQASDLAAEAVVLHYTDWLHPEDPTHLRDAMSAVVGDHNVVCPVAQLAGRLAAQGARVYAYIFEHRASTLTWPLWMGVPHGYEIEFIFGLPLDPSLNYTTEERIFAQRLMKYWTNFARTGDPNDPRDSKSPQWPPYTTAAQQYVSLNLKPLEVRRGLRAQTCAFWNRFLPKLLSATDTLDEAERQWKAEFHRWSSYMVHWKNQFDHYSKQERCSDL
pIC50: −log10 of the molar value.
Rule: MET for pIC50 not less than 5, NOT MET for anything less.

* O=c1ccc2cc(OCCN3CCCC3)c(O)cc2o1 | MET
* COc1cc2ccc(=O)oc2cc1O | NOT MET
* CCN(CC)CCOc1cc2ccc(=O)oc2cc1O | NOT MET
* O=c1ccc2cc(OCCCN3CCCC3)c(O)cc2o1 | MET
* CCN(CC)CCCOc1cc2ccc(=O)oc2cc1O | NOT MET
* CC(C)NCCCOc1cc2ccc(=O)oc2cc1O | NOT MET
* O=c1ccc2cc(OCCCN3CCCCC3)c(O)cc2o1 | NOT MET
